biological target: UniProtKB P31652; test: Affinity at the 5-HT reuptake site labeled with [3H]paroxetine using rat frontal cortex membranes
Sequence (P31652 whole entry): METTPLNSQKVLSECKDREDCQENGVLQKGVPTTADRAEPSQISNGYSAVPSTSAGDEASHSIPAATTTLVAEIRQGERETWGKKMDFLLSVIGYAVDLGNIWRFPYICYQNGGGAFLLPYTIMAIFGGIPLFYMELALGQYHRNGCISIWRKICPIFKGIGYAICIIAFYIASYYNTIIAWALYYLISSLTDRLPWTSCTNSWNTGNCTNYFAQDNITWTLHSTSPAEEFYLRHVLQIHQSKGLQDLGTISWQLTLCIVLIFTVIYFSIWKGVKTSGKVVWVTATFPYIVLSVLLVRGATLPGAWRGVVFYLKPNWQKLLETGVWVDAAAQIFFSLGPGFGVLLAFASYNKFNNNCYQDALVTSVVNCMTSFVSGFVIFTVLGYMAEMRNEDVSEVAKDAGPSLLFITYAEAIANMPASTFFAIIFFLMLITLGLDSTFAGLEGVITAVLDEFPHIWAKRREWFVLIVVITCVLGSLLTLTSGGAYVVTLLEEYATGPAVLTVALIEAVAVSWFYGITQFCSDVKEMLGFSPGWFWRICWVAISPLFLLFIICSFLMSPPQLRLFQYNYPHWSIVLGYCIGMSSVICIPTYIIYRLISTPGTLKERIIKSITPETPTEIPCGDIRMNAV
measurement name: Ki

Give the measured Ki of Cc1cc2c(OC[C@@H](O)CN3CC[C@@H](c4cc5c(C)cccc5s4)C[C@@H]3C)cccc2[nH]1 .
0.62 nM

// same read-out, input: Cc1ccc2cc([C@@H]3CCN(C[C@H](O)COc4cccc5[nH]c(C)cc45)[C@@H](C)C3)sc2c1
1.28 nM

// same read-out, input: Cc1cc2c(OC[C@@H](O)CN3CC[C@@H](c4cc5cccc(F)c5s4)C[C@@H]3C)cccc2[nH]1
1.29 nM

// same read-out, input: Cc1cc2c(OC[C@@H](O)CN3CC[C@@H](c4cc5c(F)cccc5s4)C[C@@H]3C)cccc2[nH]1
0.92 nM
